Data origin, for the record: patent US7470684B2

Target: human NK3 receptor (Homo sapiens)
Construct: expressed in transfected cells; host or cells: HEK293 cells, transiently transfected; membranes
Experiment: [3H]SR142801 competition binding assay
Conditions: hNK3 Ki, [3H]SR142801 displacement, membranes of HEK293 cells transiently expressing recombinant human NK3 receptor
I'd be grateful if you could share measured Ki for these entries.
Provide a numeric answer, followed by its unit.

Lookup result for O=C1Nc2ccc(F)cc2C2(CCN(CCC(C(=O)NCc3cccc(OC(F)F)c3)c3ccc(Cl)c(Cl)c3)CC2)O1 (centres unmarked) ; measured Ki: 19 nM

Lookup result for CN(Cc1ccc(C(F)(F)F)cc1)C(=O)C(CCN1CCC2(CC1)OC(=O)Nc1ccc(F)cc12)c1ccc(F)cc1 (centres unmarked) ; measured Ki: 32.2 nM

Lookup result for CN1C(=O)OC2(CCN(CCC(C(=O)NCc3ccc(OC(F)(F)F)cc3)c3ccc(Cl)c(Cl)c3)CC2)c2cc(F)ccc21 (centres unmarked) ; measured Ki: 3.2 nM

Lookup result for CCN(Cc1ccccc1)C(=O)C(CCN1CCC2(CC1)OC(=O)Nc1ccc(F)cc12)c1ccc(Cl)c(Cl)c1 (centres unmarked) ; measured Ki: 62.8 nM

Lookup result for COc1cc(CN(C)C(=O)C(CCN2CCC3(CC2)OC(=O)Nc2ccc(F)cc23)c2ccc(Cl)c(Cl)c2)ccc1OC(F)F (centres unmarked) ; measured Ki: 7.7 nM

---

Target: human NK3 receptor (Homo sapiens)
Construct: expressed in transfected cells; host or cells: HEK293 cells, transiently transfected; membranes
Assay: [3H]SR142801 competition binding assay
Settings: hNK3 Ki, [3H]SR142801 displacement, membranes of HEK293 cells transiently expressing recombinant human NK3 receptor
I'd be grateful if you could share measured Ki for these entries.
Quick reminder: number only, in nM, skip the unit.

Lookup result for O=C1Nc2ccc(F)cc2C2(CCN(CCC(C(=O)NCc3ccc(-c4csnn4)cc3)c3ccc(Cl)c(Cl)c3)CC2)O1 (stereo not shown) ; measured Ki: 11.6

Lookup result for C[C@H](NC(=O)[C@H](CCN1CCC2(CC1)OC(=O)Nc1ccc(F)cc12)c1ccc(Cl)c(Cl)c1)c1ccccc1 ; measured Ki: 5.7

Lookup result for COc1ccc(CN(C)C(=O)C(CCN2CCC3(CC2)OC(=O)Nc2ccc(F)cc23)c2ccc(Cl)c(Cl)c2)cc1F (stereo not shown) ; measured Ki: 5.5

Lookup result for CN(Cc1cccc(C(F)(F)F)c1)C(=O)C(CCN1CCC2(CC1)OC(=O)Nc1ccc(F)cc12)c1ccc(Cl)c(Cl)c1 (stereo not shown) ; measured Ki: 6.6

Lookup result for O=C1Nc2ccc(F)cc2C2(CCN(CCC(C(=O)NCc3ccc(Cl)cc3)c3ccc(Cl)c(Cl)c3)CC2)O1 (stereo not shown) ; measured Ki: 17

Lookup result for CCN(Cc1ccc(C)cc1)C(=O)C(CCN1CCC2(CC1)OC(=O)Nc1ccc(F)cc12)c1ccc(Cl)c(Cl)c1 (stereo not shown) ; measured Ki: 15.7

Lookup result for CN(Cc1ccc(F)cc1)C(=O)C(CCN1CCC2(CC1)OC(=O)Nc1ccc(F)cc12)c1ccc(F)cc1 (stereo not shown) ; measured Ki: 48.9

---

Target: human NK3 receptor (Homo sapiens, UniProt P29371)
Construct: expressed in transfected cells; host or cells: HEK293 cells, transiently transfected; membranes
Experiment: [3H]SR142801 competition binding assay
Settings: hNK3 Ki, [3H]SR142801 displacement, membranes of HEK293 cells transiently expressing recombinant human NK3 receptor
measuredAttribute: pKi
pKi here is simply -log10 of the concentration when that concentration is written in mol/L.

Lookup result for CN(Cc1ccc(Cl)cc1)C(=O)C(CCN1CCC2(CC1)OC(=O)Nc1ccc(F)cc12)c1ccc(F)cc1 (stereo not shown) ; measured pKi: 7.42

Lookup result for CN(Cc1cccc(Cl)c1)C(=O)C(CCN1CCC2(CC1)OC(=O)N(C)c1ccc(F)cc12)c1ccc(Cl)c(Cl)c1 (stereo not shown) ; measured pKi: 8.96

Lookup result for CN(Cc1ccc(F)cc1)C(=O)C(CCN1CCC2(CC1)OC(=O)Nc1ccc(F)cc12)c1ccc(Cl)c(Cl)c1 (stereo not shown) ; measured pKi: 8.36

Lookup result for CN(Cc1ccc(Cl)cc1)C(=O)C(CCN1CCC2(CC1)OC(=O)Nc1ccc(F)cc12)c1ccc(Cl)c(Cl)c1 (stereo not shown) ; measured pKi: 8.43

Lookup result for CN1C(=O)OC2(CCN(CCC(C(=O)NCc3ccccc3)c3ccc(Cl)c(Cl)c3)CC2)c2cc(F)ccc21 (stereo not shown) ; measured pKi: 8.41

Lookup result for O=C1Nc2ccc(F)cc2C2(CCN(CCC(C(=O)NCc3ccccc3OC(F)(F)F)c3ccc(Cl)c(Cl)c3)CC2)O1 (stereo not shown) ; measured pKi: 7.54

Lookup result for CN1C(=O)OC2(CCN(CCC(C(=O)NCc3ccc(F)cc3)c3ccc(Cl)c(Cl)c3)CC2)c2cc(F)ccc21 (stereo not shown) ; measured pKi: 8.57

---

Biological target: human NK3 receptor (Homo sapiens)
Construct: expressed in transfected cells; host or cells: HEK293 cells, transiently transfected; membranes
Assay: [3H]SR142801 competition binding assay
I'd be grateful if you could share measured Ki for these entries.
Quick reminder: number only, in nM, skip the unit.

Lookup result for CN1C(=O)OC2(CCN(CCC(C(=O)NC(c3ccc(Cl)cc3)c3nccn3C)c3ccc(Cl)c(Cl)c3)CC2)c2cc(F)ccc21 (stereo not shown) [Example 88] ; measured Ki: 72.2

Lookup result for CN1C(=O)OC2(CCN(CCC(C(=O)N3CCC(F)CC3)c3ccc(Cl)c(Cl)c3)CC2)c2cc(F)ccc21 (stereo not shown) [Example 43] ; measured Ki: 61.9

Lookup result for CN(CCc1ccccc1)C(=O)C(CCN1CCC2(CC1)OC(=O)N(C)c1ccc(F)cc12)c1ccc(Cl)c(Cl)c1 (stereo not shown) [Example 90] ; measured Ki: 8

Lookup result for CN(Cc1ccc(Cl)cc1)C(=O)[C@H](CCN1CCC2(CC1)OC(=O)N(C)c1ccc(F)cc12)c1ccc(Cl)c(Cl)c1 [Example 147] ; measured Ki: 1.8

---

Molecular target: human NK3 receptor (Homo sapiens)
Construct: expressed in transfected cells; host or cells: HEK293 cells, transiently transfected; membranes
Sequence (P29371 1-465): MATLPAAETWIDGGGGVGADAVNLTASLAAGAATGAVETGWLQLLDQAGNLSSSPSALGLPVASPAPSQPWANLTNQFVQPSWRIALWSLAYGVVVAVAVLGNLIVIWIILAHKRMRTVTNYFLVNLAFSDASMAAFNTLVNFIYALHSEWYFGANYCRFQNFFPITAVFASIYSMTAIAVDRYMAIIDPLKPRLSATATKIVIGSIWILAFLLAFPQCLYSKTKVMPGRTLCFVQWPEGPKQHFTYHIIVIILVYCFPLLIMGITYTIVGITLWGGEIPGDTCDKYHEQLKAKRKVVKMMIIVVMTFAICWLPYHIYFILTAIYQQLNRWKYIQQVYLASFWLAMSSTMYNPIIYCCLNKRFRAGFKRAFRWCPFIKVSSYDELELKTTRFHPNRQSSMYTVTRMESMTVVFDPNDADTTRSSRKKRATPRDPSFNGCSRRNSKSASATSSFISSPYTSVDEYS
Experiment: [3H]SR142801 competition binding assay
Settings: hNK3 Ki, [3H]SR142801 displacement, membranes of HEK293 cells transiently expressing recombinant human NK3 receptor
I'd be grateful if you could share measured pKi for these entries.
pKi here is simply -log10 of the concentration when that concentration is written in mol/L.

Lookup result for CN(Cc1ccc(C(F)(F)F)cc1)C(=O)C(CCN1CCC2(CC1)OC(=O)Nc1ccc(F)cc12)c1ccc(Cl)c(Cl)c1 (stereo not shown) ; measured pKi: 8.85

Lookup result for CN(Cc1ccc(C(F)(F)F)cc1)C(=O)C(CCN1CCC2(CC1)OC(=O)N(C)c1ccc(F)cc12)c1ccc(Cl)c(Cl)c1 (stereo not shown) ; measured pKi: 9.22

Lookup result for O=C1Nc2ccc(F)cc2C2(CCN(CCC(C(=O)NCc3cccc(OC(F)(F)F)c3)c3ccc(Cl)c(Cl)c3)CC2)O1 (stereo not shown) ; measured pKi: 7.81

Lookup result for COc1ccc(CNC(=O)C(CCN2CCC3(CC2)OC(=O)N(C)c2ccc(F)cc23)c2ccc(Cl)c(Cl)c2)cc1 (stereo not shown) ; measured pKi: 8.27

Lookup result for CN1C(=O)OC2(CCN(CCC(C(=O)NCc3ccc(Cl)cc3)c3ccc(Cl)c(Cl)c3)CC2)c2cc(F)ccc21 (stereo not shown) ; measured pKi: 8.48

Lookup result for CN1C(=O)OC2(CCN(CCC(C(=O)NCc3ccc(C#N)cc3)c3ccc(Cl)c(Cl)c3)CC2)c2cc(F)ccc21 (stereo not shown) ; measured pKi: 8.51

Lookup result for CN(Cc1ccc(Cl)cc1)C(=O)C(CCCN1CCC2(CC1)OC(=O)Nc1ccc(F)cc12)c1ccc(Cl)c(Cl)c1 (stereo not shown) ; measured pKi: 7.33

---

Target: human NK3 receptor (Homo sapiens, UniProt P29371)
Construct: expressed in transfected cells; host or cells: HEK293 cells, transiently transfected; membranes
Experiment: [3H]SR142801 competition binding assay
measuredAttribute: log10 of Ki (log10 of the value in nM)
Values are log10 of Ki in nM.

Lookup result for O=C1Nc2ccc(F)cc2C2(CCN(CCCC(C(=O)NCc3ccc(F)cc3)c3ccc(Cl)c(Cl)c3)CC2)O1 (stereo not shown) ; measured log10 of Ki: 1.82

Lookup result for O=C1Nc2ccc(F)cc2C2(CCN(CCC(C(=O)NCc3cccc(C(F)(F)F)c3)c3ccc(F)cc3)CC2)O1 (stereo not shown) ; measured log10 of Ki: 1.95

Lookup result for CN1C(=O)OC2(CCN(CCC(C(=O)NCc3ccc(-n4cccn4)cc3)c3ccc(Cl)c(Cl)c3)CC2)c2cc(F)ccc21 (stereo not shown) ; measured log10 of Ki: 1.94

Lookup result for CN(Cc1ccc(-c2ccncc2)cc1)C(=O)C(CCN1CCC2(CC1)OC(=O)N(C)c1ccc(F)cc12)c1ccc(Cl)c(Cl)c1 (stereo not shown) ; measured log10 of Ki: 0.97

Lookup result for CN1C(=O)OC2(CCN(CCC(C(=O)N3CCc4ccc(F)cc4C3)c3ccc(Cl)c(Cl)c3)CC2)c2cc(F)ccc21 (stereo not shown) ; measured log10 of Ki: 1.69

Lookup result for CCCCN(C)C(=O)C(CCN1CCC2(CC1)OC(=O)Nc1ccc(F)cc12)c1ccc(Cl)c(Cl)c1 (stereo not shown) ; measured log10 of Ki: 1.96

Lookup result for CN(Cc1ccc(Cl)cc1)C(=O)C(CCN1CCC2(CC1)OC(=O)N(C)c1ccc(F)cc12)c1ccc(Cl)c(Cl)c1 (stereo not shown) ; measured log10 of Ki: -0.10
